// pIC50 lookup, one value per entry
system: T1, beta-Catenin (full-length, Uniprot ID P35222) (Homo sapiens (Human), UniProt P35222 1-781)
T1 construct: also called bCat; B-Catenin
T1 sequence: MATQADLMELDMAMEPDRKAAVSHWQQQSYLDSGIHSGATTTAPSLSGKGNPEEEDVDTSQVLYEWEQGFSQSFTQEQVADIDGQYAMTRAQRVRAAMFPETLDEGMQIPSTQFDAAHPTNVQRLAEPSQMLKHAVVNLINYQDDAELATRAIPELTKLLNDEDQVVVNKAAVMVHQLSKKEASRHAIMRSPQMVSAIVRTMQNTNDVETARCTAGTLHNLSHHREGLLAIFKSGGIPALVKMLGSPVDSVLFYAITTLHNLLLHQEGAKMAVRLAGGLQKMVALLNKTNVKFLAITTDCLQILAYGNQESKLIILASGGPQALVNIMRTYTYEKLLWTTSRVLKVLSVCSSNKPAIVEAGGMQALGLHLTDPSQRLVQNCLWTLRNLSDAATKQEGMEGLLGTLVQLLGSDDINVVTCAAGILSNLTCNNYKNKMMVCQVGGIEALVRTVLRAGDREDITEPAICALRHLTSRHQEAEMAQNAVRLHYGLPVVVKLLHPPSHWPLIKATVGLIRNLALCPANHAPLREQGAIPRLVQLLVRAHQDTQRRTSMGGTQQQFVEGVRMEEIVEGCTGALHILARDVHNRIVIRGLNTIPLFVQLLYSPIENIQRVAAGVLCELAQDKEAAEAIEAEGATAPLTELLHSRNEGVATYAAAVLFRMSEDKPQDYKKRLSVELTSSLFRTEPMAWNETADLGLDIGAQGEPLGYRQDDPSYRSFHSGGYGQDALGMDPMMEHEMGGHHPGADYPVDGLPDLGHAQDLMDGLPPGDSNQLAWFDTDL
measurementNotes: fluorescence polarization competition: peptide titrated against 10 nM full-length beta-catenin + 10 nM 5FAM-labeled TCF4 residues 10-53 probe
Starred links: 1 amine or outer side, 2 acyl side, 3 side chain; linkers in the order of their positions; H or OH if unused. Positions of bridges follow the written chain, without caps; N, C: chain ends. Non-standard residues stand in square brackets, D forms with d. Primed or numbered codes have the meaning given here. B5(4) = 2,2-bis(4-pentenyl)glycine = 2-amino-2-(pent-4-en-1-yl)hept-6-enoic acid (stitching residue), C=CCCCC(CCCC=C)(N[*:1])C(=O)[*:2]; B5 = 2-amino-2-(pent-4-en-1-yl)hept-6-enoic acid, C=CCCCC(CCCC=C)(N[*:1])C(=O)[*:2]; Phe(3-CF3) = N[C@@H](Cc1cccc(C(F)(F)F)c1)C(=O)O; Phe(3,5-F2) = N[C@@H](Cc1cc(F)cc(F)c1)C(=O)O; Phe(3-F) = N[C@@H](Cc1cccc(F)c1)C(=O)O; αAllylPro = C=CC[C@@]1(C(=O)O)CCCN1; S8 = C=CCCCCCC[C@](C)(N)C(=O)O
Here pIC50 is given on a logarithmic scale as minus log10 of the concentration in mol/L.

The examples below pair each entry with its known result.
- XDAXDDAAFVXFWQ (not fully specified; N-terminal Ac; PL3 at position 1; B5 at position 4; S8 at position 11; 34FF at position 12; C-terminal NH2; stapled by olefin metathesis (PL3-B5 and B5-S8), It is the later-eluting isomer composition) [I-263: Ac-PL3-Asp-Ala-B5-Asp-Asp-Ala-Ala-Phe-Val-S8-34FF-Trp-Gln-NH2]: 5.30
- Ac-[αAllylPro]DA[B5(4)]DEAA[Phe(3,5-F2)]V[S8]FWQ-NH2 (staple 1-4, 4-11, Stapled (stitched) peptide) [I-219: Ac-PL3-Asp-Ala-B5-Asp-Glu-Ala-Ala-35FF-Val-S8-Phe-Trp-Gln-NH2]: 5.54
- Ac-[αAllylPro]DA[B5(4)]DDAAFV[S8][Phe(3-F)]WQ-NH2 (staple 1-4, 4-11, Stapled peptide) [I-260: Ac-PL3-Asp-Ala-B5-Asp-Asp-Ala-Ala-Phe-Val-S8-3FF-Trp-Gln-NH2]: 5.30
- Ac-[αAllylPro]DA[B5]DDAAFV[S8][Phe(3-CF3)]WQ-NH2 (staple 1-4, 4-11, These are separate isomer compositions) [I-250: Ac-PL3-Asp-Ala-B5-Asp-Asp-Ala-Ala-Phe-Val-S8-3F3MeF-Trp-Gln-NH2]: 5.30

Moving on to the next binder.
The binder identified as Ac-[αAllylPro]DA[B5(4)]DDAA[Phe(3-F)]V[S8]FWQ-NH2 (staple 1-4, 4-11; not fully specified; printed as Ac-PL3-Asp-Ala-B5-Asp-Asp-Ala-Ala-3FF-Val-S8-Phe-Trp-Gln-NH2, It is the earlier-eluting isomer composition) [I-264: Ac-PL3-Asp-Ala-B5-Asp-Asp-Ala-Ala-3FF-Val-S8-Phe-Trp-Gln-NH2] registered its pIC50 at 5.30
